Data origin: paper PMC8305664

Examples of compounds with documented EC50 follow.
TARGET ENTITY: TcOctβ2R (β-adrenergic-like octopamine receptor) (Tribolium castaneum, UniProt N1NSX1)
Construct: full ORF (411 amino acids), pcDNA3.1(+), transiently expressed in HEK 293 cells
Sequence (N1NSX1 1-411): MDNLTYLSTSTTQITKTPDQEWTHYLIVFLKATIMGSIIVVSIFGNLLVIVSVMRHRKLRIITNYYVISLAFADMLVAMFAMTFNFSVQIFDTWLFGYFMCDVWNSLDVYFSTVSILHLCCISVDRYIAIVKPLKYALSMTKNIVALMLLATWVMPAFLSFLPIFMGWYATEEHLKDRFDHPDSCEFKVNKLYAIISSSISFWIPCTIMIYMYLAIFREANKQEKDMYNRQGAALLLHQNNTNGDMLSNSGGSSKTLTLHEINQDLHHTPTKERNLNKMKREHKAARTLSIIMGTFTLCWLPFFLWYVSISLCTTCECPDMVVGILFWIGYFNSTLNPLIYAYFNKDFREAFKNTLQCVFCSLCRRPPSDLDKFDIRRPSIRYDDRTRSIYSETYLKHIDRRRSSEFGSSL
ASSAY NAME: GloSensor cAMP assay in HEK […] cells expressing the receptor (agonist)
Use nM as the unit, but write only the number.

Example cases with answers are listed next.
- NCCc1ccc(O)cc1: 200
- NCC(O)c1ccc(O)cc1 (stereo not drawn): 28

We next turn to a different compound, shown below.
Please state recorded EC50 (tested on TcOctβ2R (β-adrenergic-like octopamine receptor) (Tribolium castaneum, UniProt N1NSX1)) of `c1ccc2c(CC3=NCCN3)cccc2c1`
7.1
